The reported measurements were obtained from patent US6727237B2.

- MEASURED TARGET: bacterial NAD synthetase enzyme (Bacillus subtilis, UniProt P08164)
- Sequence (P08164 2-272 limits assumed): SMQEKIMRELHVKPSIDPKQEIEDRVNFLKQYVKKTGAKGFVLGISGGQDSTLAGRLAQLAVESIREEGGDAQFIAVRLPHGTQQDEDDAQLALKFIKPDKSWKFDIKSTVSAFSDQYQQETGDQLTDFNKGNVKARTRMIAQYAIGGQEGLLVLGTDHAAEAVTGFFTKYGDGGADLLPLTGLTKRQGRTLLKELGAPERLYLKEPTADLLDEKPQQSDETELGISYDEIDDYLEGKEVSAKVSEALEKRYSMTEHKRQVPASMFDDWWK
- ASSAY NAME: biochemical
- Type: biochemical
- CONDITION PARAMETERS: compound at 0.2 mM (Table 312A)
Would you mind labelling by % Inhibition? At or over 20% is Condition met, under is Condition not met.

Record excerpt, results attached:
# SMILES CODE, MEASURED TARGET, ASSIGNED CATEGORY
rows = [
    ("Cc1ccc2[nH]c(CCCCCC[n+]3ccc4ccccc4c3)cc2c1", "bacterial NAD synthetase enzyme (Bacillus subtilis, UniProt P08164)", "Condition met"),
    ("c1ccc(Oc2ccc3[nH]c(CCCCC[n+]4cccc5ccccc54)cc3c2)cc1", "bacterial NAD synthetase enzyme (Bacillus subtilis, UniProt P08164)", "Condition not met"),
    ("CC(=O)c1ccc2[nH]c(CCCCCC[n+]3ccc4ccccc4c3)cc2c1", "bacterial NAD synthetase enzyme (Bacillus subtilis, UniProt P08164)", "Condition not met"),
    ("O=[N+]([O-])c1cc([N+](=O)[O-])c2[nH]c(CCCC[n+]3ccccc3)cc2c1", "bacterial NAD synthetase enzyme (Bacillus subtilis, UniProt P08164)", "Condition not met"),
    ("COC(=O)c1ccc2[nH]c(CCCCCCC[n+]3cccc4ccccc43)cc2c1", "bacterial NAD synthetase enzyme (Bacillus subtilis, UniProt P08164)", "Condition not met"),
    ("c1ccc(Oc2ccc3[nH]c(CCCCC[n+]4ccc5ccccc5c4)cc3c2)cc1", "bacterial NAD synthetase enzyme (Bacillus subtilis, UniProt P08164)", "Condition met"),
]

*Q* Quick check, % Inhibition >= 20%? c1ccc(Oc2ccc3[nH]c(CCCCCCC[n+]4ccc5ccccc5c4)cc3c2)cc1
*A* Condition not met

*Q* Decide: is the reported value of % Inhibition for Fc1cc(F)c2[nH]c(CCCCCCCC[n+]3ccc4ccccc4c3)cc2c1 equal to or greater than 20%?
*A* Condition met

* * *

// reported IC50 per item
- MEASURED TARGET: bacterial NAD synthetase enzyme (Bacillus subtilis, UniProt P08164)
- ASSAY NAME: biochemical
- Assay type: biochemical
- CONDITION PARAMETERS: lead compounds (Table 318A); read-out: IC 50
Write the answer as a number in µM, unit excluded.

# SMILES CODE, MEASURED TARGET, ENDPOINT UNIT, RECORDED MEASUREMENT
records = [
    ("C[n+]1cccc(C(=O)OCCCCCCCCn2ccc3cc(OCc4ccccc4)ccc32)c1", "bacterial NAD synthetase enzyme (Bacillus subtilis, UniProt P08164)", "µM", 20),
    ("CN(C)c1ccc(CC(=O)OCCCCCn2ccc3cc([N+](=O)[O-])ccc32)cc1", "bacterial NAD synthetase enzyme (Bacillus subtilis, UniProt P08164)", "µM", 70),
    ("COC(=O)c1cc2ccccc2n1CCCCCCCCCOC(=O)Cc1ccc([N+](C)(C)C)cc1", "bacterial NAD synthetase enzyme (Bacillus subtilis, UniProt P08164)", "µM", 10),
]

Could you now consider this next compound?
*Q* So what does the record say about IC50 for CN(C)c1ccc(CC(=O)OCCCCCCn2ccc3cc([N+](=O)[O-])ccc32)cc1 ?
*A* 80
